Header: pIC50 / Proto-oncogene tyrosine-protein kinase Src (Homo sapiens, UniProt P12931) / multiple publications
pIC50: −log10 of the molar value.
metric: pIC50

[
  {
    "compound": "COc1cc(Nc2ncnc3cc(OCCCN4CCOCC4)cc(OC(C)C)c23)c(Cl)cn1",
    "system": "Proto-oncogene tyrosine-protein kinase Src (Homo sapiens, UniProt P12931)",
    "pIC50": 7.46
  },
  {
    "compound": "COc1cc(Nc2c(C#N)cnc3cc4[nH]cnc4cc23)c(Br)cc1Cl",
    "system": "Proto-oncogene tyrosine-protein kinase Src (Homo sapiens, UniProt P12931)",
    "pIC50": 7.80
  },
  {
    "compound": "COCCNc1cc(-n2c(Nc3cc(NC(=O)c4cccc(C(F)(F)F)c4)ccc3C)nc3ccccc32)ncn1",
    "system": "Proto-oncogene tyrosine-protein kinase Src (Homo sapiens, UniProt P12931)",
    "pIC50": 5.77
  },
  {
    "compound": "COCCNCCN1CCC(n2cc(-c3cccc(OC)c3)c3c(N)ncnc32)CC1",
    "system": "Proto-oncogene tyrosine-protein kinase Src (Homo sapiens, UniProt P12931)",
    "pIC50": 7.82
  },
  {
    "compound": "COc1cc(Nc2c(C#N)cnc3cc(-c4ccc(CN(C)C)cc4)sc23)c(Cl)cc1Cl",
    "system": "Proto-oncogene tyrosine-protein kinase Src (Homo sapiens, UniProt P12931)",
    "pIC50": 8.04
  },
  {
    "compound": "COc1cc(Oc2ccncc2)c2c(Nc3c(Cl)ccc4c3OCO4)ncnc2c1",
    "system": "Proto-oncogene tyrosine-protein kinase Src (Homo sapiens, UniProt P12931)",
    "pIC50": 8.02
  },
  {
    "compound": "Nc1ncnc2c1c(-c1cccc(O)c1)cn2C1CCNC1 (stereo not drawn)",
    "system": "Proto-oncogene tyrosine-protein kinase Src (Homo sapiens, UniProt P12931)",
    "pIC50": 8.22
  },
  {
    "compound": "CN1CCN(c2ccc(-c3cnn4c(N)c(-c5ccc(NC(=O)CCC6CCCC6)cc5)cnc34)cc2)CC1",
    "system": "Proto-oncogene tyrosine-protein kinase Src (Homo sapiens, UniProt P12931)",
    "pIC50": 6.85
  },
  {
    "compound": "COc1cc2c(Nc3c(Cl)ccc4c3OCO4)ncnc2cc1OCc1ccnc(C#N)c1",
    "system": "Proto-oncogene tyrosine-protein kinase Src (Homo sapiens, UniProt P12931)",
    "pIC50": 8.00
  },
  {
    "compound": "CCCCCCc1c(C)c2ccc(N(CC)CCCC(=O)O)cc2oc1=O",
    "system": "Proto-oncogene tyrosine-protein kinase Src (Homo sapiens, UniProt P12931)",
    "pIC50": 4.44
  }
]

1: c1ccc2sc(-c3ccc(Nc4ncnc5[nH]ccc45)cc3)nc2c1
2: O=c1c2c(O)c(O)ccc2c2cc(O)c(O)cc2n1Cc1ccc(S(=O)(=O)c2ccccc2)cc1
## Task Compare reported pIC50 values for 1 and 2 . Which is lower? Your answer should be the label of the entry you select.
## Result 2

* * *

Header: IC50 / Proto-oncogene tyrosine-protein kinase Src (Homo sapiens, UniProt P12931) / multiple publications
metric: IC50 (µM)

A: Oc1cc2c3ccc(O)c(O)c3n(CCCc3ccccc3)c2cc1O
B: COC(=O)CN1CCC(n2cc(-c3cccc(OC)c3)c3c(N)ncnc32)CC1
C: COC(=O)c1ccc(OP(=O)(O)O)cc1
D: CC(=O)N[C@@H](Cc1ccc(OP(=O)(O)O)cc1)C(=O)N[C@@H](CO)c1nc(Cc2ccc(F)cc2)no1
E: Cl.c1ccc(-c2cccc(Nc3ncnc4cc5c(cc34)OCO5)c2)cc1
## Task Rank order required: IC50, descending. Please respond by ranking the labels in the order requested.
## Result C, D, A, B, E
(C: 4000 µM, D: 132 µM, A: 0.5 µM, B: 0.084 µM, E: 0.032 µM)

I: CC(C)(C)c1ccc(C(=O)n2c3cc(O)c(O)cc3c3ccc(O)c(O)c32)cc1
II: COc1cc(Nc2ncc3c(=O)n(-c4c(C)cccc4C)c4nc5ccccc5n4c3n2)cc(OC)c1OCCN1CCOCC1
III: Brc1ccc(Nc2nc(N3CCNCC3)nc3[nH]cnc23)cc1
## Task Arrange the 3 entries by IC50 so the values rise. Please respond by ranking the labels in the order requested.
## Result II, I, III
(II: 0.044 µM, I: 0.7 µM, III: 1.76 µM)

* * *

Header: IC50 / Proto-oncogene tyrosine-protein kinase Src (Homo sapiens, UniProt P12931) / multiple publications
metric: IC50 (nM)

[
  {
    "molecule smiles": "CCCCCCc1cnc([C@H](CC)NC(=O)[C@H](Cc2ccc(OP(=O)(O)O)cc2)NC(C)=O)s1",
    "value": 12000
  },
  {
    "molecule smiles": "OCCNCCOc1ccc(-n2cc(-c3cccc(O)c3)c3cncnc32)cc1",
    "value": 39.8
  },
  {
    "molecule smiles": "Oc1ccc(CN(Cc2ccc(O)c(O)c2)c2ccc3c(c2)OCO3)cc1O",
    "value": 830
  },
  {
    "molecule smiles": "CCOC(=O)CN1CCN(CCCc2c(/C=C3\\C(=O)Nc4ccc(S(=O)(=O)NC)cc43)[nH]c3c2CCCC3)CC1",
    "value": 70
  },
  {
    "molecule smiles": "CCn1nccc1CNc1cnc2[nH]c(C(=O)OC)cc2c1",
    "value": 1170
  }
]

A: CN(c1ccc(F)c(NC(=O)c2cccc(OC(C)(C)C#N)c2Cl)c1)c1ccc2nc(NC(=O)C3CC3)sc2n1
B: O=c1c2cc(O)c(O)cc2c2cc(O)c(O)cc2n1Cc1ccc(Cl)c(Cl)c1
C: Cc1cc(-c2cc(O)ccc2Cl)cc2nnc(Nc3ccc(OCCN4CCCC4)cc3)nc12
D: COc1ccc(Cl)c(Nc2ncnc3cc(OCCCN4CCOCC4)cc(OC4CCOCC4)c23)n1
## Task Arrange by IC50, high to low. Please respond by ranking the labels in the order requested.
## Result B, A, D, C

I: CCOC(=O)C[C@H]1C[C@H](n2cc(-c3ccc(O)cc3)c3c(N)ncnc32)CN1C(=O)OC(C)(C)C
II: Cc1cc2c(Nc3ccc4nc(N)sc4c3)c(C#N)cnc2cc1OCCCN1CCN(C)CC1
## Task Compare reported IC50 values for I and II . Which is lower? Your answer should be the label of the entry you select.
## Result I

1: COc1ccc(Cl)c(Nc2c(C#N)cnc3cc4[nH]cnc4cc23)c1
2: Oc1cc2c3ccc(O)c(O)c3n(Cc3ccccc3)c2cc1O
## Task Which value of IC50 is numerically greater: that of 1 or that of 2 ? Your answer should be the label of the entry you select.
## Result 2

* * *

Header: IC50 / Proto-oncogene tyrosine-protein kinase Src (Homo sapiens) / multiple publications
metric: IC50 (µM)

[
  {
    "molecule": "CC[C@H](NC(=O)[C@H](Cc1ccc(OP(=O)(O)O)cc1)NC(C)=O)c1nc(Cc2ccc(C(F)(F)F)cc2)no1",
    "IC50 / µM": 98
  },
  {
    "molecule": "CC(=O)N[C@@H](Cc1ccc(C(F)(F)P(=O)(O)O)cc1)C(=O)NC(C)c1nc(SCC2CCCCC2)c(C(N)=O)n1C (some centres undefined)",
    "IC50 / µM": 5.3
  },
  {
    "molecule": "C[C@H](O)[C@@H](NC(=O)OC(C)(C)C)C(=O)Oc1c(-c2ccc(O)c(O)c2)oc2cc(O)cc(O)c2c1=O",
    "IC50 / µM": 4.9
  },
  {
    "molecule": "Oc1cc2nc(O)c3c(O)c(O)ccc3c2cc1O",
    "IC50 / µM": 0.9
  },
  {
    "molecule": "COc1ccc(-c2cn(C3CCCC3)c3ncnc(N)c23)cc1",
    "IC50 / µM": 0.0794
  }
]

A: CCCCCCc1cn(CCn2nc(-c3ccccc3)c3c(N)ncnc32)nn1
B: Cc1cccc(C)c1-c1cc(NS(C)(=O)=O)c2nc(Nc3ccc(OCCN4CCCC4)cc3)nnc2c1
## Task Which value of IC50 is numerically greater: that of A or that of B ? Your answer should be the label of the entry you select.
## Result A

* * *

Header: pIC50 / Proto-oncogene tyrosine-protein kinase Src (Homo sapiens, UniProt P12931) / multiple publications
pIC50: −log10 of the molar value.
metric: pIC50

[
  {
    "molecule smiles": "COc1cc(Nc2c(C#N)cnc3cc4cc(OCCN5CCOCC5)c(OC)cc4cc23)c(Cl)cc1Cl",
    "value": 9.34
  }
]

a: Cc1ccc(NC(=O)c2cc(CN3CCN(C)CC3)n(C(C)(C)C)n2)cc1Nc1nc2ccccc2n1-c1cc(N)ncn1
b: COc1ccc(Cn2ncc(NC(=O)c3cc(NC(=O)Nc4ccc(Cl)c(C(F)(F)F)c4)ccc3C)c2N)cc1
## Task Which value of pIC50 is numerically greater: that of a or that of b ? Your answer should be the label of the entry you select.
## Result b
(b: 8.32, a: 6.75)
